- System: K. pneumoniae ATCC 10031 (SEN) and K. pneumoniae ATCC 700603 (MDR)
- Test: Adaptive laboratory evolution (ALE), relative MIC of evolved lines
- Assay type: cell-based, Klebsiella pneumoniae
- Conditions Used: KP-SEN (Klebsiella pneumoniae ATCC 10031), evolved line 8 adapted to the named antibiotic
Measured Endpoint: Relative MIC (log10)
API doc: respond with a numeric literal and nothing else, no unit.

Study these solved cases before continuing.
* C[C@H]1c2cccc(O)c2C(=O)C2=C(O)[C@]3(O)C(=O)C(C(N)=O)=C(O)[C@@H](N(C)C)[C@@H]3[C@@H](O)[C@@H]21 | 2.408
* CN[C@@H]1[C@@H](O[C@H]2O[C@H](CO)[C@@H](N)[C@H](O)[C@H]2O)OC2C[C@@H](N)[C@@H](O[C@H]3[C@H](O)[C@@H](O)[C@H](N)C[C@@H]3N)OC2[C@@H]1O (stereo partly shown) | 1.806
* CNC(C)C1CCC(N)C(OC2C(N)CC(N)C(OC3OCC(C)(O)C(NC)C3O)C2O)O1 (stereo not shown) | 2.107

Please examine the following record next.
Query string: Using the record for Nc1nc(-n2cc(C(=O)O)c(=O)c3cc(F)c(N4CC(O)C4)c(Cl)c32)c(F)cc1F , report its Relative MIC (log10).
Result string: 4.816

###

compounds and their reported Relative MIC
- System: A. baumannii ATCC 17978 (SEN) and A. baumannii ATCC BAA-1605 (MDR)
- Test: Adaptive laboratory evolution (ALE), relative MIC of evolved lines
- Assay type: cell-based, Acinetobacter baumannii
- Conditions Used: AB-SEN (Acinetobacter baumannii ATCC 17978), evolved line 9
Where a SMILES comes first, the peptide text is derived from it. Bridges are numbered along the chain shown (N, C = ends). [ ]: non-standard residue; d: D form. The star is where a group is joined. X1 = NC[C@@H](CC(=O)*)c1cccc(Cl)c1; Dab = NCC[C@H](N)C(=O)O; Dap = NC[C@H](N)C(=O)O
API doc: respond with a numeric literal and nothing else, no unit.

Query string: Please provide the recorded Relative MIC for CN(C)c1cc(CNCC(C)(C)C)c(O)c2c1C[C@H]1C[C@H]3[C@H](N(C)C)C(O)=C(C(N)=O)C(=O)[C@@]3(O)C(O)=C1C2=O , tested on A. baumannii ATCC 17978 (SEN) and A. baumannii ATCC BAA-1605 (MDR).
Result string: 32

Query string: Please provide the recorded Relative MIC for CC(C)c1ccc(Cn2ccc3c4c(N)nc(NC5CC5)nc4ccc32)cc1 , tested on A. baumannii ATCC 17978 (SEN) and A. baumannii ATCC BAA-1605 (MDR).
Result string: 2

Query string: Please provide the recorded Relative MIC for CC(C)C[C@@H]1NC(=O)[C@@H](Cc2ccccc2)NC(=O)[C@H](CCN)NC(=O)[C@@H](NC(=O)[C@H](CN)NC(=O)[C@@H](NC(=O)C[C@H](CN)c2cccc(Cl)c2)[C@@H](C)O)CCNC(=O)[C@H]([C@@H](C)O)NC(=O)[C@H](CCN)NC(=O)[C@H](CCN)NC1=O [SPR206] (X1-T[Dap][Dab][Dab][dF]L[Dab][Dab]T; lactam 3-C (inferred); N-terminus assumed) , tested on A. baumannii ATCC 17978 (SEN) and A. baumannii ATCC BAA-1605 (MDR).
Result string: 8192

Query string: Please provide the recorded Relative MIC for O=c1ccc2ncc(=O)n3c2n1C[C@H]3CN1CCC(NCc2cc3c(cn2)OCCC3)CC1 , tested on A. baumannii ATCC 17978 (SEN) and A. baumannii ATCC BAA-1605 (MDR).
Result string: 64
